Tested on: MOLT-4
Assay: NCI tumour cell line growth inhibition, 48 h
The source made the active and inactive calls. Cut-off read from the data, not from the text of the source: active = GI50 up to about 1.1 µM and inactive = higher.
Select the correct class. Options are active, inactive and nothing else.

COMPOUND | CLASS
COc1ccc(/C=C(/C(=O)c2ccc(Cl)cc2)N2C=CC=CC2=C(C#N)C#N)cc1OC | active
O=C/C=C/c1ccco1 | inactive
Cc1nc(O)c(Cc2ccccc2O)c(-c2ccccc2)n1 | inactive
COC(=O)C1=C(C(=O)OC)C2C=CC1C1C(Cl)=C(Cl)C21 (stereo unspecified) | inactive
COC(=O)C1=C(C(=O)OC)C2=S(SC3=C2CCCC3)S1 (stereo unspecified) | inactive

Okay, now this compound:
q: Field: outcome | Entry: CN1CCCCC1CCN1CCCCC1 (stereo unspecified)
a: inactive

====

System: NCI-H226
Experiment: NCI tumour cell line growth inhibition, 48 h
Calls of active or inactive are those of the source. Cut-off read from the data, not from the text of the source: active = GI50 up to about 1.1 µM and inactive = higher.
TEST READOUT: GI50

COMPOUND | ASSAY RESULT
O=C/C=C/c1ccco1 | > 100 µM (inactive)
COc1ccc(C2CC(c3ccc4ccccc4c3O)=NN2C(C)=O)cc1OC (centres undefined) | > 100 µM (inactive)
O=S(=O)(O)C1CCC(O)C2NCCCC21 (centres undefined) | > 100 µM (inactive)
CN(C)c1ccc(/C=N\NC(=O)c2ccccc2Nc2ccccc2C(=O)N/N=C/c2ccc(N(C)C)cc2)cc1 | > 100 µM (inactive)
CCOC(=O)c1cc2nc3ccccc3c(=O)n2c2ccccc12 | > 10 µM (inactive)
O=C(NC1CCCCC1)c1cc2ccccc2cc1O | 17.3 µM (inactive)
CN1CCCCC1CCN1CCCCC1 (centres undefined) | > 100 µM (inactive)
O=C(c1cccs1)N(C(=O)N1CCCCC1)c1ccccc1 | > 100 µM (inactive)
CCCN(CCc1ccc(-c2ccccc2)cc1)CCc1ccc2nn[nH]c2c1 | 15.8 µM (inactive)
CC1=CCC[C@@]2(C)C(CC[C@@H]2C(C)/C=C/C(C)C)c2ccc(cc2C(=O)O)C[C@@H](O)CC1 (some centres undefined) | 18.5 µM (inactive)

Working through the 2 compounds below one at a time, give GI50 for each.
1. Cc1nc(O)c(Cc2ccccc2O)c(-c2ccccc2)n1
2. CCCCOC(=O)CN1C(=O)c2ccccc2C1=O

a:
1: > 100 µM (inactive); 2: > 100 µM (inactive)

====

Test system: CCRF-CEM
Assay: NCI tumour cell line growth inhibition, 48 h
Activity calls are given as the source filed them. Cut-off read from the data, not from the text of the source: active = GI50 up to about 1.1 µM and inactive = higher.
The categories you may choose from are True for active, False for inactive

Consider the worked cases shown below.
MOLECULE | CLASS
O=c1c(C(c2ccc([N+](=O)[O-])cc2)c2c(O)c3ccccc3n(-c3ccccc3)c2=O)c(O)c2ccccc2n1-c1ccccc1 | False
CC(=O)N(CN1C(=O)CCC1C(=O)O)c1ccccc1 (stereo unspecified) | False
CN1NC(c2ccccc2)=C(C#N)C(=O)CC1c1ccc(F)cc1 (stereo unspecified) | False
Cc1cn(C2CC(O)C(Cn3nncc3Cn3ncc(=O)[nH]c3=O)O2)c(=O)[nH]c1=O (stereo unspecified) | False
CN(C)c1ccc(/C=N\NC(=O)c2ccccc2Nc2ccccc2C(=O)N/N=C/c2ccc(N(C)C)cc2)cc1 | False

q: GET /call?item= `Cc1nc(-[n+]2nc(-c3ccncc3)nn2-c2ccccc2)sc1C` returns the recorded outcome of this test.
a: False

q: // param item: `COC(=O)C1=Nc2c(C)nn(-c3ccccc3)c2N=C(c2ccc([N+](=O)[O-])cc2)C1` ; yields the recorded call
a: False

q: How did this test come out for O=[N+]([O-])c1nccn1CC(O)c1ccccc1 (stereo unspecified) ?
a: False

q: Name the outcome recorded for `CCOC(=O)N[C@H]1CCc2cc(OC)c(OC)c(OC)c2-c2ccc(SC)c(=O)cc21` in the assay.
a: True

q: Please let me know the test result on file for CC1=CCCC2C1(C)CCC(C)C2(C)Cc1cc(O)ccc1O (stereo unspecified) .
a: False

q: # fetch the recorded call for COc1cc(/C=C2/C(=O)N(C(=O)OCC(C)C)C(Cc3cc(OC)c(OC)c(C)c3OC)C(=O)N2Cc2ccccc2)c(OC)c(C)c1OC (stereo unspecified) here
a: False

====

Tested on: U-251
Test: NCI tumour cell line growth inhibition, 48 h
Active and inactive are the calls of the source. Rule as the data show it: active = GI50 up to about 1.1 µM and inactive = higher.
So I've got a bunch of molecules here, and I need their GI50 values.

See these solved cases before continuing.
MOLECULE | GI50
CCCCCCCCCCCCCCCCCC(=O)NCC(COP(=O)([O-])OCC[N+](C)(C)C)OC (stereo not drawn) | 1.87 µM (inactive)
COc1ccc(S(=O)(=O)n2c3c(c4ccccc42)[C@@H]2[C@@H](CCCN2C(=O)C[S+]([O-])c2ccc(C)cc2)[C@H](Cl)C3)cc1 (stereo partly drawn) | > 100 µM (inactive)
COC(=O)CC1C(C)(C)C(=O)C2CC3=C4CC(=O)OC(c5ccoc5)C4(C)CCC3C1(C)C2=O (stereo not drawn) | > 100 µM (inactive)
Cn1c(-c2ccc(C=O)o2)ccc1-c1ccc(C=O)o1 | 40.7 µM (inactive)
CC(C)C(C(=O)O)N(CC1(O)OCC(O)C(O)C1O)N=O (stereo not drawn) | > 100 µM (inactive)
COc1ccc(/C=C/C(=O)c2c(-c3ccccc3)nn(C)c(=O)c2N2CCCC2)cc1 | > 100 µM (inactive)

Lab note: each molecule below needs its GI50 filled in.
1. COC(=O)CCc1c(Cc2ccc[nH]2)[nH]c(C(=O)OCc2ccccc2)c1C
2. CC(=O)Nc1ccc(S(=O)(=O)[N-]C2C(=O)c3ccccc3C(=O)C2[n+]2ccccc2)cc1 (stereo not drawn)
3. COc1cc2oc(=O)cc(C)c2cc1OC

a:
22.3 µM (inactive)
14.3 µM (inactive)
> 100 µM (inactive)

Dear colleague, could you please provide GI50 for the molecules listed below?
1. N=c1oc2ccccc2cc1C(=O)Nc1nccs1
2. O=C(c1cccnc1)N1N=C(c2ccc3c(c2)OCO3)CC1(O)c1cc(F)c(Cl)cc1Cl (stereo not drawn)
3. CC(=O)N(CN1C(=O)CCC1C(=O)O)c1ccccc1 (stereo not drawn)

a:
1. 33 µM (inactive)
2. 16.7 µM (inactive)
3. > 100 µM (inactive)

q: Please state recorded GI50 (tested on U-251) of `Cc1ncc([N+](=O)[O-])n1CCNC(=O)Cn1ccnc1[N+](=O)[O-]`
a: > 100 µM (inactive)

====

Tested on: A498
Experiment: NCI tumour cell line growth inhibition, 48 h
Active and inactive are the calls of the source. Cut-off read from the data, not from the text of the source: active = GI50 up to about 1.1 µM and inactive = higher.
Permitted responses: active, inactive

A selection of reference data follows.
COMPOUND | CLASS
Cc1ccc(S[C@@H](C)[C@@](O)(CF)CN(Cc2ccccc2)C(=O)C(F)(F)F)cc1 | inactive
CC(C)(C)c1cc(O)c2c(c1O)C(=O)CCC2 | inactive
O=[N+]([O-])c1ccc(C2N3CCCCC3[C@@H]3c4[nH]c5ccccc5c4CCN23)cc1 (stereo not given in full) | inactive

Please examine the following record next.
q: Test call, this compound: `COc1ccccc1N1CCN(CCCCNC(=O)c2ccc([N+](=O)[O-])o2)CC1`
a: inactive

====

Test system: CCRF-CEM
Assay: NCI tumour cell line growth inhibition, 48 h
Active and inactive are the calls of the source. No stated cut-off is given here; in the data, active = GI50 up to about 1.1 µM and inactive = higher.
Pick one and only one: true (1) for active, false (0) for inactive

Example entries and their recorded answers appear below.
MOLECULE | CLASS
Cc1ccccc1NC(=O)C(=O)Cc1nc2ccccc2s1 | false (0)
CC(=O)N(C)c1ccc2c(ccc[n+]2[O-])c1[N+](=O)[O-] | false (0)
CCCCOc1ccc(/C=C/C2=[N+](CCO)CCO2)cc1 | false (0)
CCCN(CCc1ccc(-c2ccccc2)cc1)CCc1ccc2nn[nH]c2c1 | false (0)
C#CCN(Cc1ccc2[nH]c(N)nc(=O)c2c1)c1ccc(C(=O)NC(CCC(=O)O)C(=O)O)cc1 (stereo unspecified) | false (0)

q: Assay outcome for CSc1nc2c(nc(N)n2C2OC(COC(C)=O)C(OC(C)=O)C(OC(C)=O)C2OC(C)=O)c(=O)n1C (stereo unspecified) : what was it?
a: false (0)

q: Lab log entry: `Nc1ccccc1C(=O)NNC(=O)c1ccccc1N` — outcome as called in the assay?
a: false (0)

q: What classification did CC[N+]1(C)CCC(O)(c2ccc(Cl)cc2)C(C(=O)c2ccc(Cl)cc2)C1 (stereo unspecified) end up with in this test?
a: false (0)

q: Hi team, can someone confirm the assay call for C/C=C/C=C/C1=NN(c2cccc(S(=O)(=O)O)c2)C2(C1)C(Cl)C(=O)N2c1nc2ccccc2s1 (stereo unspecified) ?
a: false (0)

q: How was COc1ccc(CC2C(=O)NC(C)C(=O)N(C)C3Cc4ccc(cc4)Oc4cc(ccc4O)CC(C(=O)NC(C)C(=O)NC(C)C(=O)N2C)N(C)C3=O)cc1 (stereo unspecified) classified in this test?
a: true (1)

src = ChEMBL document CHEMBL1201862
